The molecules listed here are annotated with their absorption maximum.
# assay_details: solvent given as SMILES
# run_parameters: in CC#N
Number in nm, nothing else.

Example cases with answers are listed next.
COc1cc(C=O)cc(-c2[nH]c(=O)n3c2-c2ccccc2C3=O)c1O ... 390
c1ccc(-c2nc(-c3cccs3)[nH]c2-c2ccccc2)cc1 ... 317
CCCCCCCCCCn1cc(C2=C(c3cn(CCCCCCCCCC)c4ccccc34)C(=O)N(C)C2=O)c2ccccc21 ... 470
CCCCCCCCCC[n+]1cc2ccc3c[n+](CCCCCCCCCC)cc4ccc(c1)c2c34 ... 418
CCOC(=O)CN1C(=O)C2=C(c3ccc(N4CCCCC4)cc3)N(CC(=O)OCC)C(=O)C2=C1c1ccc(C#N)cc1 ... 524
Cc1cc(C2(c3cc(C)c(O)c(Br)c3)OS(=O)(=O)c3ccccc32)cc(Br)c1O ... 398

Given the entry CCN(CC)c1ccc(/C=N/c2ccccc2/N=C/c2ccc(N(CC)CC)cc2O)c(O)c1 , report its measured absorption maximum.
442

What would you report for O=C1c2ccccc2-c2c(-c3cccc(Cl)c3O)[nH]c(=O)n21 ?
388

Next molecule: CN(C)c1ccc(-c2cc(-c3ccc(C#N)cc3)nn2C)cc1
292

Same question, CCOC(=O)c1ccc(O)c(-c2[nH]c(=O)n3c2-c2ccccc2C3=O)c1 this time
391
